Target: PI3Kα (p110α/p85α) (Homo sapiens (Human))
Sequence (P42336 whole entry): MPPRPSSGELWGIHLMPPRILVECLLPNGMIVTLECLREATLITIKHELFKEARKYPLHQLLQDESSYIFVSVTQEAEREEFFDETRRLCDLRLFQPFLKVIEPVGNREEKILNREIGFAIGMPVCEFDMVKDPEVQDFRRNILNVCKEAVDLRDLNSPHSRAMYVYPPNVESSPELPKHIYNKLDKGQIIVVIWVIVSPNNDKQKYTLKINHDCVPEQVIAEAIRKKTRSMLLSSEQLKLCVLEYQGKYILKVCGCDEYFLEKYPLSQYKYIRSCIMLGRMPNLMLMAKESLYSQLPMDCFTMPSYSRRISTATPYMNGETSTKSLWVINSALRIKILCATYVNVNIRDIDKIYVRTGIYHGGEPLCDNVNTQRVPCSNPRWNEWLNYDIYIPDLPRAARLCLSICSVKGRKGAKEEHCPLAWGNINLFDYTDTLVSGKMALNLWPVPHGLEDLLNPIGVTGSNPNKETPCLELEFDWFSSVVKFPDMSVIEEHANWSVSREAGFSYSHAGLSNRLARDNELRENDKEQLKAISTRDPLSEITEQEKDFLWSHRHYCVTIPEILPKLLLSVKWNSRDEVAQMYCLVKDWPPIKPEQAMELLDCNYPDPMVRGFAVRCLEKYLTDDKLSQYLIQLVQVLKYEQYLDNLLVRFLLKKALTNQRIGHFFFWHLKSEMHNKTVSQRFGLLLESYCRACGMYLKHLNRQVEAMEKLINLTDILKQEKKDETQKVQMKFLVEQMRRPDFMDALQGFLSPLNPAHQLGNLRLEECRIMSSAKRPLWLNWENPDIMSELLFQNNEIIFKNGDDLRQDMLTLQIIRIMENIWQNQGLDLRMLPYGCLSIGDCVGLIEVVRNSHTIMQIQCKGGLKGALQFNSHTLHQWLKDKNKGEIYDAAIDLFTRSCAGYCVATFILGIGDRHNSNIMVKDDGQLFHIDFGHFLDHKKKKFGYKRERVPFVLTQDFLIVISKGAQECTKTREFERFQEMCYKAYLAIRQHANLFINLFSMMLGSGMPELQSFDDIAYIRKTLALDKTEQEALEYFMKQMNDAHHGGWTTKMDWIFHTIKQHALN
Sequence (P27986 whole entry partner): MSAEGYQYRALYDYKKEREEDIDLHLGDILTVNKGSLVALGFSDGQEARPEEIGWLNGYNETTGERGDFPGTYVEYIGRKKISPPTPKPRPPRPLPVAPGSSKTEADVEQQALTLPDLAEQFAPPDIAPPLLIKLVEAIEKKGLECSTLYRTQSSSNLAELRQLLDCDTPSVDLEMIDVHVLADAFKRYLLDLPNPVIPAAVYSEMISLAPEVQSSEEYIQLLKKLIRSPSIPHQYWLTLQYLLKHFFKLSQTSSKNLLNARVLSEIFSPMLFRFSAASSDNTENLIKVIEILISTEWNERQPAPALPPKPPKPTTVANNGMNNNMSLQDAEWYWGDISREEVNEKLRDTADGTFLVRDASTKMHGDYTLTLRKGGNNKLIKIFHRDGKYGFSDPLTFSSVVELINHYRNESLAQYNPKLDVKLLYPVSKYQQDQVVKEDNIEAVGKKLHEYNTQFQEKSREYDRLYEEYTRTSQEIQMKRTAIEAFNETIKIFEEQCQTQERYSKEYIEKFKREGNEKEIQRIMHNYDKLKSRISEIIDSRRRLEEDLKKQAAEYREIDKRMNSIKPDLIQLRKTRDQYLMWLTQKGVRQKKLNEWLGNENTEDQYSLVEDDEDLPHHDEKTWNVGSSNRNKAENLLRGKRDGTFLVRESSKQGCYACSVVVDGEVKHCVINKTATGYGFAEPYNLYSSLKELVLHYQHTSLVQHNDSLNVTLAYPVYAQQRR
Assay: cell-free PI3K HTRF assay, PI3Kα
Type: biochemical
Conditions: ratio of IC50 against PI3Kα related to PI3Kδ; 10-dose, 3-fold serial dilution starting at 10 μM
measured_property: Ratio (α/δ)

Request: Enter reported Ratio (α/δ) observed with PI3Kα (p110α/p85α) (Homo sapiens (Human)) for `N#Cc1c(N)ncnc1N1CCC[C@H]1c1cc2cccc(Cl)c2nc1-c1ccccc1`
Response: >8583

Request: Value wanted: Ratio (α/δ) (PI3Kα (p110α/p85α) (Homo sapiens (Human))) of entry N#Cc1c(N)ncnc1N1CCCC1c1cc2ccc(F)cc2nc1-c1ccccc1 (centres unmarked)
Response: 2170

Request: Give Ratio (α/δ) (PI3Kα (p110α/p85α) (Homo sapiens (Human))) of the following compound: COc1cccc(-c2nc3cc(F)ccc3cc2C2CCCN2c2ncnc3[nH]cnc23)c1 (centres unmarked)
Response: >926

Request: # returns recorded Ratio (α/δ) (system: PI3Kα (p110α/p85α) (Homo sapiens (Human))) for COc1ccccc1-c1nc2cc(F)ccc2cc1C1CCCN1c1ncnc2[nH]cnc12 (centres unmarked)
Response: >694

Request: GET /values?readout=Ratio (α/δ)&system=PI3Kα (p110α/p85α) (Homo sapiens (Human))&item= Fc1ccc2cc(C3CCCCN3c3ncnc4[nH]cnc34)c(N3CCOCC3)nc2c1 (centres unmarked)
Response: 529

Request: For the record Fc1ccc2cc(C3CCCN3c3ncnc4[nH]cnc34)c(-c3cccc(OC(F)(F)F)c3)nc2c1 (centres unmarked) , what value of Ratio (α/δ) is listed for PI3Kα (p110α/p85α) (Homo sapiens (Human))?
Response: 483

Request: Which measured Ratio (α/δ) belongs to N#Cc1c(N)ncnc1N1CCCC1c1cc2ccc(F)cc2nc1-c1ccncc1 (centres unmarked) , tested on PI3Kα (p110α/p85α) (Homo sapiens (Human))?
Response: 138

Request: Value wanted: Ratio (α/δ) (PI3Kα (p110α/p85α) (Homo sapiens (Human))) of entry `N#Cc1c(N)nc(N)nc1N1CCC[C@H]1c1cc2cccc(Cl)c2nc1-c1ccccc1`
Response: >545

Request: State its Ratio (α/δ) on PI3Kα (p110α/p85α) (Homo sapiens (Human)): N#Cc1c(N)ncnc1N1CCCC1c1cc2ccc(F)cc2nc1N1CCCCC1 (centres unmarked)
Response: >100000

Request: Test system PI3Kα (p110α/p85α) (Homo sapiens (Human)); read-out Ratio (α/δ); what value for `Clc1cccc2cc([C@@H]3CCCN3c3ncnc4[nH]cnc34)c(N3CCOCC3)nc12` ?
Response: 493

Request: Report Ratio (α/δ) for COc1cccc(-c2nc3cc(F)ccc3cc2C2CCCN2c2ncnc(N)c2C#N)c1 (centres unmarked) tested on PI3Kα (p110α/p85α) (Homo sapiens (Human)).
Response: 962

Request: Lab request: please report Ratio (α/δ) under test system PI3Kα (p110α/p85α) (Homo sapiens (Human)) for `Cc1cccc2cc([C@@H]3CCCN3c3nc(N)nc(N)c3C#N)c(-c3ccccc3)nc12`
Response: >1801

Request: Provide the documented Ratio (α/δ) with PI3Kα (p110α/p85α) (Homo sapiens (Human)) as the system for `N#Cc1c(N)ncnc1N1CCC[C@H]1c1cc2cccc(Cl)c2nc1N1CCOCC1`
Response: >4154

Request: Write down the reported Ratio (α/δ) of `Fc1ccc2cc([C@@H]3CCCN3c3ncnc4[nH]cnc34)c(-c3ccccn3)nc2c1` , test system: PI3Kα (p110α/p85α) (Homo sapiens (Human)).
Response: >781

Request: Notebook entry, PI3Kα (p110α/p85α) (Homo sapiens (Human)) assay: Ratio (α/δ) of N#Cc1c(N)nc(N)nc1N1CCCC1c1cc2ccc(F)cc2nc1-c1ccccc1 (centres unmarked) = ?
Response: >12756

Request: For PI3Kα (p110α/p85α) (Homo sapiens (Human)), provide Ratio (α/δ) of Fc1ccc2cc(C3CCCN3c3ncnc4[nH]cnc34)c(N3CCOCC3)nc2c1 (centres unmarked) please.
Response: 528

Request: # get_value(readout= Ratio (α/δ), system= PI3Kα (p110α/p85α) (Homo sapiens (Human))) for `Cc1cccc2cc([C@@H]3CCCN3c3ncnc4[nH]cnc34)c(N3CCOCC3)nc12`
Response: 748

----------
Target: PI3Kβ (p110β/p85α) (Homo sapiens (Human))
Sequence (P42338 whole entry): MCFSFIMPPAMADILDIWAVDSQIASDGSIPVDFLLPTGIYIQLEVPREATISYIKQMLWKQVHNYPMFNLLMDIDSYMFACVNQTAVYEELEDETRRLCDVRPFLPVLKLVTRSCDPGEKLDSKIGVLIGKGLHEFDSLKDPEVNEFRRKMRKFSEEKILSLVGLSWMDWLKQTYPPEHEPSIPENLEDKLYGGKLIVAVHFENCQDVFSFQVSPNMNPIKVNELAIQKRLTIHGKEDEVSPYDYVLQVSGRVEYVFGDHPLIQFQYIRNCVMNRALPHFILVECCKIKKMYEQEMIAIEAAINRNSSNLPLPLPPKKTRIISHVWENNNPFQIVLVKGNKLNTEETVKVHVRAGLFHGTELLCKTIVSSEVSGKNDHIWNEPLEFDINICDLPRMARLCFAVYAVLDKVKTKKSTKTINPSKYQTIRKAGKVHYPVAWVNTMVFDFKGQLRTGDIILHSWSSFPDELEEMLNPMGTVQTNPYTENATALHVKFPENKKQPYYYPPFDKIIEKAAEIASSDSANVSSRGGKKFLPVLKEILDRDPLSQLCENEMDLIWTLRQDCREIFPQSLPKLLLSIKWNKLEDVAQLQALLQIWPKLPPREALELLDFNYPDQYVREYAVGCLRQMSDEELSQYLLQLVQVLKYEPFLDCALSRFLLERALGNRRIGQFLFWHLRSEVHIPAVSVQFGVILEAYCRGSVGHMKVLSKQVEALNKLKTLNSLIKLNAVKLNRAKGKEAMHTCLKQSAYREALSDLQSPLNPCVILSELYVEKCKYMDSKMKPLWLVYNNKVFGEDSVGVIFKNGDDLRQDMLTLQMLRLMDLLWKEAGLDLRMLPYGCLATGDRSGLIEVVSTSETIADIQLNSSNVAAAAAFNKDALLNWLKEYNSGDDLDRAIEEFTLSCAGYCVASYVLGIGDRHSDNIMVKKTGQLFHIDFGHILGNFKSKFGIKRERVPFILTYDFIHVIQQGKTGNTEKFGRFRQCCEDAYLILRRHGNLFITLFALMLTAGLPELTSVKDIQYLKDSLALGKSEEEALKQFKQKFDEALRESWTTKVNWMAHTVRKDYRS
Sequence (P27986 whole entry partner): as the sequence (P27986 whole entry partner) above
Assay: cell-free PI3K HTRF assay, PI3Kβ
Format: biochemical
Conditions: ratio of IC50 against PI3Kβ related to PI3Kδ; 10-dose, 3-fold serial dilution starting at 10 μM
measured_property: Ratio (β/δ)
Give the value as a plain number.

Request: Please give the measured Ratio (β/δ) for this molecule: Clc1cccc2cc([C@@H]3CCCN3c3ncnc4[nH]cnc34)c(N3CCOCC3)nc12 [Compound 66]
Response: 250

Request: So what's the measured Ratio (β/δ) for this one? N#Cc1c(N)ncnc1N1CCC[C@H]1c1cc2cccc(Cl)c2nc1-c1ccccc1 [Compound 67]
Response: 1368

Request: // lookup Ratio (β/δ) for Fc1ccc2cc(C3CCCN3c3ncnc4[nH]cnc34)c(-c3ccncc3)nc2c1 (stereo not shown) [Compound 14]
Response: 4.2

Request: Field request: Ratio (β/δ) | item: N#Cc1c(N)ncnc1N1CCCC1c1cc2ccc(F)cc2nc1N1CCCCC1 (stereo not shown) [Compound 18]
Response: 14712

----------
Molecular target: PI3Kγ (p110γ) (Homo sapiens (Human))
Sequence (P48736 whole entry): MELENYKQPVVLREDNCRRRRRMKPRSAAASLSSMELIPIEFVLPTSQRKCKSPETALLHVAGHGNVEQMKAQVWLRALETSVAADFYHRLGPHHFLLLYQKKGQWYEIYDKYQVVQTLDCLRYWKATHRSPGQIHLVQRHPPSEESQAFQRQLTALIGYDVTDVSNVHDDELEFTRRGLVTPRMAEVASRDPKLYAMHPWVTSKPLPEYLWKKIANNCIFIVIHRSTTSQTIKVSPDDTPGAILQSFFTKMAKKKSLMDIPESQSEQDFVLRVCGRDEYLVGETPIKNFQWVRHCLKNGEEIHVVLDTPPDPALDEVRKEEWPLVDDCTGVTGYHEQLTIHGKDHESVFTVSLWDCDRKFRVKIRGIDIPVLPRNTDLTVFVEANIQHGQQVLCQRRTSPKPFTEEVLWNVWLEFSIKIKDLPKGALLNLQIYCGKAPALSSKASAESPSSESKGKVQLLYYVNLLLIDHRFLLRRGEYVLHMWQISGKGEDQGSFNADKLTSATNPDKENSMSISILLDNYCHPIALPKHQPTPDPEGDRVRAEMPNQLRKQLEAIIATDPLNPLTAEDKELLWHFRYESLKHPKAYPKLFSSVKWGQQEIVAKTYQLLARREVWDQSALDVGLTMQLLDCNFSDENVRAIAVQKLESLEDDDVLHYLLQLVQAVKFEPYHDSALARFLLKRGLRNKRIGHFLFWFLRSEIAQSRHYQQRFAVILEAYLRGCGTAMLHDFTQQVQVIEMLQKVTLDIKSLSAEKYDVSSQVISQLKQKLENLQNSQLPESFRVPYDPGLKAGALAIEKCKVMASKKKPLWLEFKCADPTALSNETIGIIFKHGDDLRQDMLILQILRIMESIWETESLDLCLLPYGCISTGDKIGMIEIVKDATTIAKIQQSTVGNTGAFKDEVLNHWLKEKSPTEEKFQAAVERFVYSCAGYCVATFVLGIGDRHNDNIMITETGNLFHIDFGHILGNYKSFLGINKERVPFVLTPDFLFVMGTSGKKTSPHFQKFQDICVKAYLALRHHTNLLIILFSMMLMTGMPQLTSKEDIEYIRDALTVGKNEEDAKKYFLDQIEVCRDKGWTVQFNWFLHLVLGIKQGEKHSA
Assay: cell-free PI3K HTRF assay, PI3Kγ
Type: biochemical
Settings: ratio of IC50 against PI3Kγ related to PI3Kδ; 10-dose, 3-fold serial dilution starting at 10 μM
measured_property: Ratio (γ/δ)
Just the number.

Request: Name the recorded Ratio (γ/δ) for Fc1ccc2cc(C3CCCCN3c3ncnc4[nH]cnc34)c(N3CCOCC3)nc2c1 (centres unmarked) .
Response: 106

Request: Ratio (γ/δ) lookup needed for `Fc1ccc2cc([C@@H]3CCCN3c3ncnc4[nH]cnc34)c(-c3ccccn3)nc2c1` , thanks.
Response: 53

Request: // returns reported Ratio (γ/δ) for input Fc1cccc(-c2nc3cc(F)ccc3cc2C2CCCN2c2ncnc3[nH]cnc23)c1 (centres unmarked)
Response: 139

Request: Please report the recorded Ratio (γ/δ) for `Clc1cccc2cc([C@@H]3CCCN3c3ncnc4[nH]cnc34)c(N3CCOCC3)nc12` .
Response: 24

Request: If you can, please state the reported Ratio (γ/δ) value of COc1cccc(-c2nc3cc(F)ccc3cc2C2CCCN2c2ncnc(N)c2C#N)c1 (centres unmarked) .
Response: 85

Request: Can you look up the measured Ratio (γ/δ) of Fc1ccc2cc(C3CC=CCN3c3ncnc4[nH]cnc34)c(-c3ccccc3)nc2c1 (centres unmarked) for me?
Response: 16

Request: Suppose we examine the compound COc1ccccc1-c1nc2cc(F)ccc2cc1C1CCCN1c1ncnc2[nH]cnc12 (centres unmarked) ; what Ratio (γ/δ) value has been reported?
Response: 5.1

----------
Biological target: PI3Kδ (p110δ/p85α) (Homo sapiens (Human), UniProt O00329)
Sequence (O00329 whole entry, one chain of several): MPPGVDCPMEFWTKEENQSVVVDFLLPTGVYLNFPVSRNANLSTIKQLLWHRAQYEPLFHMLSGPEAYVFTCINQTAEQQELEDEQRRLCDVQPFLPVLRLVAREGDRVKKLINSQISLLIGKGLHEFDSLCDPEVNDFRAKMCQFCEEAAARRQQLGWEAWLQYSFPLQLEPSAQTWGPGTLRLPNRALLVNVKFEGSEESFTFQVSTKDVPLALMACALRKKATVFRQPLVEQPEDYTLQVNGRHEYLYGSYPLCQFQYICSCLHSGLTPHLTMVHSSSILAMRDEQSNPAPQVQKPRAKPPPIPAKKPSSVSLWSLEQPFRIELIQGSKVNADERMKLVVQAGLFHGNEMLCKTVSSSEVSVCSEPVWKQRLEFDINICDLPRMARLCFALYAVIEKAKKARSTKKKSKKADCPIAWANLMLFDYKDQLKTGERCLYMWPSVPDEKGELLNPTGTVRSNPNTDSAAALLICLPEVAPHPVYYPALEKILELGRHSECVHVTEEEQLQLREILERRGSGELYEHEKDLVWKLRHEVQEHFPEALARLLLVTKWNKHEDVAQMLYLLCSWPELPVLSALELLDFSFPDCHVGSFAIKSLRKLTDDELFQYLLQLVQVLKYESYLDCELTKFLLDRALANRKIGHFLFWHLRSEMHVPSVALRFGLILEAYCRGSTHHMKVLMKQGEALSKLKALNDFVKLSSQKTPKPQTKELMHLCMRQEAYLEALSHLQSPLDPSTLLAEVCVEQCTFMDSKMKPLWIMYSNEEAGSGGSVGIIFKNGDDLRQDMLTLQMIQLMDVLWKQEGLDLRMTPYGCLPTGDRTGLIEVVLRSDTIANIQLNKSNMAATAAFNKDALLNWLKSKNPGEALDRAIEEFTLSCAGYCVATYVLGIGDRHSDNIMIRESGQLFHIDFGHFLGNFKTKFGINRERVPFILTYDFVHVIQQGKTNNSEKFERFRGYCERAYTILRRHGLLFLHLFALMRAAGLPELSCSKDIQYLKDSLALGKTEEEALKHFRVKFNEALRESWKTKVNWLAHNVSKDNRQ
Experiment: cell-free PI3K HTRF assay, PI3Kδ
Conditions: 10-dose IC50 mode, 3-fold serial dilution starting at 1 μM; ATP 10 μM; read-out: IC50 value for the inhibition of PI3Kδ
measured_property: pIC50
Hey, just a heads up that pIC50 is the negative log base 10 of the concentration in molar.

Request: Query (molecule): N#Cc1c(N)ncnc1N1CC=CCC1c1cc2ccc(F)cc2nc1-c1ccccc1 (stereo not drawn) ; field requested: pIC50
Response: 7.26

Request: Which value of pIC50 has been reported for N#Cc1c(N)ncnc1N1CCCC1c1cc2ccc(F)cc2nc1-c1ccccc1 (stereo not drawn) in the records?
Response: 8.77

----------
Molecular target: PI3Kβ (p110β/p85α) (Homo sapiens (Human))
Test: cell-free PI3K HTRF assay, PI3Kβ
Format: biochemical
Conditions: ratio of IC50 against PI3Kβ related to PI3Kδ; 10-dose, 3-fold serial dilution starting at 10 μM
measured_property: Ratio (β/δ)
# answer = number (no unit)

Request: I am curious: what Ratio (β/δ) value has been reported for Nc1nc(N2CCCC2c2cc3ccc(F)cc3nc2N2CCCCC2)c2nc[nH]c2n1 (centres unmarked) [Compound 17] ?
Response: 1714

Request: Fill blank: measured Ratio (β/δ) of the molecule Cc1cccc2cc([C@@H]3CCCN3c3ncnc4[nH]cnc34)c(-c3ccccc3)nc12 [Compound 63] is ____.
Response: 264

Request: What does the data say about its Ratio (β/δ)? Entry: Fc1ccc2cc(C3CCCN3c3ncnc4[nH]cnc34)c(-c3cccc(OC(F)(F)F)c3)nc2c1 (centres unmarked) [Compound 26]
Response: 39.7

Request: Consider the molecule Fc1ccc2cc(C3CCCN3c3ncnc4[nH]cnc34)c(-c3ccccc3F)nc2c1 (centres unmarked) [Compound 24] and give its measured Ratio (β/δ).
Response: 393

Request: # input molecule: N#Cc1c(N)ncnc1N1CCCC1c1cc2ccc(F)cc2nc1-c1ccncc1 (centres unmarked) [Compound 15] ; wanted: its Ratio (β/δ)
Response: 11

Request: For the molecule shown here, Fc1ccc2cc(C3CCCN3c3ncnc4[nH]cnc34)c(N3CCOCC3)nc2c1 (centres unmarked) [Compound 20] , give the reported Ratio (β/δ).
Response: 190

Request: Ratio (β/δ) lookup needed for Fc1ccc2cc(C3CCCN3c3ncnc4[nH]cnc34)c(-c3ccccn3)nc2c1 (centres unmarked) [Compound 10] , thanks.
Response: 519

Request: Sample Fc1ccc2cc(C3CCCN3c3ncnc4[nH]cnc34)c(N3CCCCC3)nc2c1 (centres unmarked) [Compound 16] — what was its Ratio (β/δ)?
Response: 1153

Request: Please look up its Ratio (β/δ): Cc1cccc2cc([C@@H]3CCCN3c3ncnc4[nH]cnc34)c(N3CCOCC3)nc12 [Compound 64]
Response: 317

Request: Ratio (β/δ) for COc1cccc(-c2nc3cc(F)ccc3cc2C2CCCN2c2ncnc3[nH]cnc23)c1 (centres unmarked) [Compound 23] ?
Response: 396

Request: Consider the molecule COc1ccccc1-c1nc2cc(F)ccc2cc1C1CCCN1c1ncnc2[nH]cnc12 (centres unmarked) [Compound 25] and give its measured Ratio (β/δ).
Response: 297

Request: Which Ratio (β/δ) reading was recorded for the molecule COc1cccc(-c2nc3cc(F)ccc3cc2C2CCCN2c2ncnc(N)c2C#N)c1 (centres unmarked) [Compound 30] ?
Response: 631

Request: Item N#Cc1c(N)ncnc1N1CCCC1c1cc2ccc(F)cc2nc1N1CCOCC1 (centres unmarked) [Compound 7] has what recorded Ratio (β/δ)?
Response: 344

Request: Field request: Ratio (β/δ) | item: Fc1ccc2cc(C3CCCCN3c3ncnc4[nH]cnc34)c(N3CCOCC3)nc2c1 (centres unmarked) [Compound 38]
Response: 537
